Can you tell me Copies/cell class, CLL2 for the items I'm about to list?
TESTED TARGET: HLA-B*0702 (HLA-B7) peptide complexes (Homo sapiens, UniProt P01889)
Construct: endogenous in cells; host or cells: JY B-lymphoblastoid line; primary ALL, CLL, HCL, AML samples; bone marrow; healthy B and T cells
ASSAY REMARKS: HLA-B*0702 phosphopeptides associated with leukemia samples (isolation of HLA-associated peptides)
CONDITION SUMMARY: CLL2
Non-standard residues stand in square brackets, D forms with d. No end group written: not given here. pS = N[C@@H](COP(=O)(O)O)C(=O)O

# lookup: Copies/cell class, CLL2 of 319 (RPN[pS]PSPTAL; listed as Homo sapiens) [compound 319]
3 (3 indicates 6-25 copies per cell)

Please report the recorded Copies/cell class, CLL2 for 322 (RPP[pS]SEFLDL; listed as Homo sapiens) [compound 322] .
1 (1 indicates <1 copy/cell)

Could you tell me which Copies/cell class, CLL2 is on file for 312 (RPD[pS]RLGKTEL; listed as Homo sapiens) [compound 312] ?
1 (1 indicates <1 copy/cell)

Suppose we examine the substance 318 (RPKPSS[pS]PV; listed as Homo sapiens) [compound 318] ; what Copies/cell class, CLL2 value has been reported?
1 (1 indicates <1 copy/cell)

Quick check: Copies/cell class, CLL2 of 344 (RP[pS]SPALYF; listed as Homo sapiens) [compound 344] ?
1 (1 indicates <1 copy/cell)

Item 388 (TPR[pS]PPLGLI; listed as Homo sapiens) [compound 388] has what recorded Copies/cell class, CLL2?
2 (2 indicates 1-5 copies/cell)

Please give the measured Copies/cell class, CLL2 for this substance: 288 (KPPYRSH[pS]L; listed as Homo sapiens) [compound 288]
1 (1 indicates <1 copy/cell)

Would you mind telling me what Copies/cell class, CLL2 value was observed for 308 (RPA[pS]ARAQPGL; listed as Homo sapiens) [compound 308] ?
3 (3 indicates 6-25 copies per cell)

----------
TESTED TARGET: HLA-A*0201 (HLA-A2) peptide complexes (Homo sapiens, UniProt P04439, D140Y/D185E/D98H/E176V/E277Q/G131W/G231S/I119V/I121R/I166T/I218V/L300P/L318F/N151K/N90K/P208A/P217A/Q86G/Q94H/R138H/R169H/T345S)
Construct: endogenous in cells; host or cells: JY B-lymphoblastoid line; primary CLL, MCL, AML, ALL samples; healthy splenic T and B cells
ASSAY REMARKS: HLA-A*0201 phosphopeptides associated with leukemia samples (isolation of HLA-associated peptides)
CONDITION SUMMARY: mantle cell lymphoma sample
RESULT TYPE: Copies/cell class, MCL
// return just the number, without any unit appended

What does the record list as Copies/cell class, MCL for 436 (KAKSPAPGL; SITE (1)..(9): One or more of the listed amino acids can be phosphorylated as set forth in the Tables; listed as Homo sapiens) [compound 436] ?
0

----------
Would you mind telling me the reported Copies/cell class, AML1 of each entry?
TESTED TARGET: HLA-B*0702 (HLA-B7) peptide complexes (Homo sapiens)
Construct: endogenous in cells; host or cells: JY B-lymphoblastoid line; primary ALL, CLL, HCL, AML samples; bone marrow; healthy B and T cells
ASSAY REMARKS: HLA-B*0702 phosphopeptides associated with leukemia samples (isolation of HLA-associated peptides)
CONDITION SUMMARY: AML1
Text: To identify naturally processed tumor-associated phosphopeptides, HLA-A*0201 (HLA-A2) and HLA-B*0702 (HLA-B7) peptide complexes from four (4) chronic lymphocytic leukemia (CLL) tumor samples, a mantle cell lymphoma sample (MCL), one acute lymphoblastic leukemia (ALL), and an acute myeloid leukemia (AML) sample, in addition to healthy splenic T and B-cells and the cultured lymphoblastoid cell line JY were isolated. […]
Non-standard residues stand in square brackets, D forms with d. No end group written: not given here. pS = N[C@@H](COP(=O)(O)O)C(=O)O

Please give the measured Copies/cell class, AML1 for this substance: 356 (RRS[pS]LDAEIDSL; listed as Homo sapiens) [compound 356]
1 (1 indicates <1 copy/cell)

State the recorded Copies/cell class, AML1 for this entry: 368 (SPEKAGRR[pS]SL; listed as Homo sapiens) [compound 368]
1 (1 indicates <1 copy/cell)

Endpoint output: Copies/cell class, AML1 of 312 (RPD[pS]RLGKTEL; listed as Homo sapiens) [compound 312] . Value?
2 (2 indicates 1-5 copies/cell)

I am curious: what Copies/cell class, AML1 value has been reported for 344 (RP[pS]SPALYF; listed as Homo sapiens) [compound 344] ?
1 (1 indicates <1 copy/cell)

Which Copies/cell class, AML1 is reported for this substance? 370 (SPGLARKR[pS]L; listed as Homo sapiens) [compound 370]
1 (1 indicates <1 copy/cell)

What value of Copies/cell class, AML1 has been recorded for this entry: 288 (KPPYRSH[pS]L; listed as Homo sapiens) [compound 288]
1 (1 indicates <1 copy/cell)

----------
Please provide measured Copies/cell class, MCL for the entries that follow.
TESTED TARGET: HLA-A*0201 (HLA-A2) peptide complexes (Homo sapiens, UniProt P04439, D140Y/D185E/D98H/E176V/E277Q/G131W/G231S/I119V/I121R/I166T/I218V/L300P/L318F/N151K/N90K/P208A/P217A/Q86G/Q94H/R138H/R169H/T345S)
Construct: endogenous in cells; host or cells: JY B-lymphoblastoid line; primary CLL, MCL, AML, ALL samples; healthy splenic T and B cells
ASSAY REMARKS: HLA-A*0201 phosphopeptides associated with leukemia samples (isolation of HLA-associated peptides)
CONDITION SUMMARY: mantle cell lymphoma sample

Look up Copies/cell class, MCL for this substance: 464 (VMIGSPKKV; SITE (1)..(9): One or more of the listed amino acids can be phosphorylated as set forth in the Tables; listed as Homo sapiens) [compound 464]
1 (1 indicates <1 copy/cell)

Entry 457 (RTFSPTYGL; SITE (1)..(9): One or more of the listed amino acids can be phosphorylated as set forth in the Tables; listed as Homo sapiens) [compound 457] has what Copies/cell class, MCL?
0

----------
TESTED TARGET: HLA-B*0702 (HLA-B7) peptide complexes (Homo sapiens, UniProt P01889)
Construct: endogenous in cells; host or cells: JY B-lymphoblastoid line; primary ALL, CLL, HCL, AML samples; bone marrow; healthy B and T cells
ASSAY REMARKS: HLA-B*0702 phosphopeptides associated with leukemia samples (isolation of HLA-associated peptides)
CONDITION SUMMARY: AML1
Non-standard residues stand in square brackets, D forms with d. No end group written: not given here. pS = N[C@@H](COP(=O)(O)O)C(=O)O
Please provide measured Copies/cell class, AML1 for the entries that follow.

Query for HLA-B*0702 (HLA-B7) peptide complexes (Homo sapiens, UniProt P01889): what Copies/cell class, AML1 does the record show for 388 (TPR[pS]PPLGLI; listed as Homo sapiens) [compound 388] ?
3 (3 indicates 6-25 copies per cell)

Request: Copies/cell class, AML1, test system HLA-B*0702 (HLA-B7) peptide complexes (Homo sapiens, UniProt P01889), entry 336 (RPR[pS]PRQNSI; listed as Homo sapiens) [compound 336]
2 (2 indicates 1-5 copies/cell)

Query for HLA-B*0702 (HLA-B7) peptide complexes (Homo sapiens, UniProt P01889): what Copies/cell class, AML1 does the record show for 302 (QPR[pS]PGPDYSL; listed as Homo sapiens) [compound 302] ?
3 (3 indicates 6-25 copies per cell)

Given the entry 278 (GPR[pS]ASLLSL; not fully specified; listed as Homo sapiens) [compound 278] , what Copies/cell class, AML1 was observed with HLA-B*0702 (HLA-B7) peptide complexes (Homo sapiens, UniProt P01889)?
3 (3 indicates 6-25 copies per cell)

// lookup Copies/cell class, AML1 | system=HLA-B*0702 (HLA-B7) peptide complexes (Homo sapiens, UniProt P01889) | key= 389 (VPR[pS]PKHAHSSSL; listed as Homo sapiens) [compound 389]
1 (1 indicates <1 copy/cell)

Identify the measured Copies/cell class, AML1 of 379 (SPR[pS]PSTTYL; listed as Homo sapiens) [compound 379] for HLA-B*0702 (HLA-B7) peptide complexes (Homo sapiens, UniProt P01889).
2 (2 indicates 1-5 copies/cell)

Observed Copies/cell class, AML1 on HLA-B*0702 (HLA-B7) peptide complexes (Homo sapiens, UniProt P01889) for 334 (RPR[pS]PGSNSKV; listed as Homo sapiens) [compound 334] , please.
1 (1 indicates <1 copy/cell)

Lab request: please report Copies/cell class, AML1 under test system HLA-B*0702 (HLA-B7) peptide complexes (Homo sapiens, UniProt P01889) for 383 (SPSTSRSGG[pS]SRL; listed as Homo sapiens) [compound 383]
1 (1 indicates <1 copy/cell)

Identify the measured Copies/cell class, AML1 of 392 (YQR[pS]FDEVEGVF; listed as Homo sapiens) [compound 392] for HLA-B*0702 (HLA-B7) peptide complexes (Homo sapiens, UniProt P01889).
2 (2 indicates 1-5 copies/cell)

State its Copies/cell class, AML1 on HLA-B*0702 (HLA-B7) peptide complexes (Homo sapiens, UniProt P01889): 391 (YQR[pS]FDEVEGV; listed as Homo sapiens) [compound 391]
1 (1 indicates <1 copy/cell)

State its Copies/cell class, AML1 on HLA-B*0702 (HLA-B7) peptide complexes (Homo sapiens, UniProt P01889): 273 (FRR[pS]PTKSSLDY; listed as Homo sapiens) [compound 273]
4 (4 indicates >25 copies per cell)

Observed Copies/cell class, AML1 on HLA-B*0702 (HLA-B7) peptide complexes (Homo sapiens, UniProt P01889) for 283 (KPA[pS]PKFIVTL; listed as Homo sapiens) [compound 283] , please.
2 (2 indicates 1-5 copies/cell)

Query for HLA-B*0702 (HLA-B7) peptide complexes (Homo sapiens, UniProt P01889): what Copies/cell class, AML1 does the record show for 272 (FRR[pS]PTKSSL; listed as Homo sapiens) [compound 272] ?
2 (2 indicates 1-5 copies/cell)

Look up Copies/cell class, AML1 with HLA-B*0702 (HLA-B7) peptide complexes (Homo sapiens, UniProt P01889) for this substance: 382 (SPS[pS]PSVRRQL; listed as Homo sapiens) [compound 382]
2 (2 indicates 1-5 copies/cell)

Find the measured Copies/cell class, AML1: item 351 (RPY[pS]PPFFSL; listed as Homo sapiens) [compound 351] , target or system HLA-B*0702 (HLA-B7) peptide complexes (Homo sapiens, UniProt P01889).
2 (2 indicates 1-5 copies/cell)

Checklist item: Copies/cell class, AML1 tested on HLA-B*0702 (HLA-B7) peptide complexes (Homo sapiens, UniProt P01889), entry 324 (RPQRAT[pS]NVF; listed as Homo sapiens) [compound 324] , value?
2 (2 indicates 1-5 copies/cell)

Provide the documented Copies/cell class, AML1 with HLA-B*0702 (HLA-B7) peptide complexes (Homo sapiens, UniProt P01889) as the system for 277 (GPRSASLL[pS]L; listed as Homo sapiens) [compound 277]
4 (4 indicates >25 copies per cell)

Param readout= Copies/cell class, AML1; system= HLA-B*0702 (HLA-B7) peptide complexes (Homo sapiens, UniProt P01889); entry= 308 (RPA[pS]ARAQPGL; listed as Homo sapiens) [compound 308] ; returns value.
2 (2 indicates 1-5 copies/cell)

From: patent US12042530B2
